B1: Arginine-glutamic acid dipeptide repeats protein, residues 502 to 543; numbered along this chain, Q9P2R6 (parent)
chain: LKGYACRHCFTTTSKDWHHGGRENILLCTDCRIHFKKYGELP

# Variants of: B1
# assay.name: abundance fitness (aPCA) (normalised: wild type 0, dead -1); higher = more abundant; growth selection in yeast, the domain comes from the species named
# condition.summary: Homo sapiens
The threshold is inclusive: abundance fitness of exactly -0.09 counts as Satisfied; values below receive Not satisfied.

>  <change>
Y4M

>  <group.label>
Satisfied

$$$$
>  <change>
D30G

>  <group.label>
Satisfied

$$$$
>  <change>
K36L

>  <group.label>
Satisfied

$$$$
>  <change>
I25W

>  <group.label>
Satisfied

$$$$
>  <change>
G21M

>  <group.label>
Not satisfied

$$$$
>  <change>
C6Q

>  <group.label>
Not satisfied

$$$$
>  <change>
G39Y

>  <group.label>
Not satisfied

$$$$
>  <change>
W17P

>  <group.label>
Not satisfied

$$$$
>  <change>
T11F

>  <group.label>
Not satisfied

$$$$
>  <change>
L41K

>  <group.label>
Not satisfied

$$$$
>  <change>
W17A

>  <group.label>
Not satisfied

$$$$
>  <change>
T29W

>  <group.label>
Satisfied

$$$$
>  <change>
S14Y

>  <group.label>
Not satisfied

$$$$
>  <change>
T29K

>  <group.label>
Not satisfied

$$$$
>  <change>
D30L

>  <group.label>
Not satisfied

$$$$
>  <change>
K37D

>  <group.label>
Satisfied

$$$$
>  <change>
L27Y

>  <group.label>
Not satisfied

$$$$
>  <change>
T11G

>  <group.label>
Not satisfied

$$$$
>  <change>
E40V

>  <group.label>
Satisfied

$$$$
>  <change>
T13P

>  <group.label>
Not satisfied

$$$$
>  <change>
N24F

>  <group.label>
Not satisfied

$$$$
>  <change>
H8S

>  <group.label>
Not satisfied

$$$$
>  <change>
K37R

>  <group.label>
Satisfied

$$$$
>  <change>
R22V

>  <group.label>
Satisfied

$$$$
>  <change>
F35D

>  <group.label>
Not satisfied

$$$$
>  <change>
F10D

>  <group.label>
Satisfied

$$$$
>  <change>
G21V

>  <group.label>
Not satisfied

$$$$
>  <change>
F10A

>  <group.label>
Satisfied

$$$$
>  <change>
A5M

>  <group.label>
Satisfied

$$$$
>  <change>
N24P

>  <group.label>
Not satisfied

$$$$
>  <change>
T12C

>  <group.label>
Not satisfied

$$$$
>  <change>
L26I

>  <group.label>
Satisfied

$$$$
>  <change>
S14K

>  <group.label>
Satisfied

$$$$
>  <change>
A5G

>  <group.label>
Satisfied

$$$$
>  <change>
W17V

>  <group.label>
Not satisfied

$$$$
>  <change>
H8Y

>  <group.label>
Not satisfied

$$$$
>  <change>
L1W

>  <group.label>
Not satisfied

$$$$
>  <change>
L26S

>  <group.label>
Not satisfied

$$$$
>  <change>
F10I

>  <group.label>
Not satisfied

$$$$
>  <change>
I25P

>  <group.label>
Not satisfied

$$$$
>  <change>
G20R

>  <group.label>
Not satisfied

$$$$
>  <change>
Y4S

>  <group.label>
Satisfied

$$$$
>  <change>
F35P

>  <group.label>
Not satisfied

$$$$
>  <change>
W17T

>  <group.label>
Not satisfied

$$$$
>  <change>
K2D

>  <group.label>
Satisfied

$$$$
>  <change>
Y4K

>  <group.label>
Not satisfied

$$$$
>  <change>
C31E

>  <group.label>
Not satisfied

$$$$
>  <change>
K36Q

>  <group.label>
Satisfied

$$$$
>  <change>
L27R

>  <group.label>
Not satisfied

$$$$
>  <change>
D30E

>  <group.label>
Satisfied

$$$$
>  <change>
P42Q

>  <group.label>
Not satisfied

$$$$
>  <change>
H34S

>  <group.label>
Satisfied

$$$$
>  <change>
G39E

>  <group.label>
Satisfied

$$$$
>  <change>
P42V

>  <group.label>
Not satisfied

$$$$
>  <change>
K37V

>  <group.label>
Not satisfied

$$$$
>  <change>
N24Y

>  <group.label>
Not satisfied

$$$$
>  <change>
W17G

>  <group.label>
Not satisfied

$$$$
>  <change>
F35H

>  <group.label>
Satisfied

$$$$
>  <change>
H19A

>  <group.label>
Satisfied

$$$$
>  <change>
A5C

>  <group.label>
Satisfied

$$$$
>  <change>
C28Q

>  <group.label>
Not satisfied

$$$$
>  <change>
L1F

>  <group.label>
Satisfied

$$$$
>  <change>
E23H

>  <group.label>
Not satisfied

$$$$
>  <change>
L27T

>  <group.label>
Not satisfied

$$$$
>  <change>
S14I

>  <group.label>
Not satisfied

$$$$
>  <change>
T29I

>  <group.label>
Not satisfied

$$$$
>  <change>
T29R

>  <group.label>
Not satisfied

$$$$
>  <change>
E23D

>  <group.label>
Satisfied

$$$$
>  <change>
W17L

>  <group.label>
Not satisfied

$$$$
>  <change>
C6V

>  <group.label>
Not satisfied

$$$$
>  <change>
R22D

>  <group.label>
Satisfied

$$$$
>  <change>
A5Y

>  <group.label>
Not satisfied

$$$$
>  <change>
P42E

>  <group.label>
Not satisfied

$$$$
>  <change>
Y4L

>  <group.label>
Not satisfied

$$$$
>  <change>
H8I

>  <group.label>
Not satisfied

$$$$
>  <change>
Y38F

>  <group.label>
Satisfied

$$$$
>  <change>
G21N

>  <group.label>
Not satisfied

$$$$
>  <change>
I25M

>  <group.label>
Not satisfied

$$$$
>  <change>
I33C

>  <group.label>
Satisfied

$$$$
>  <change>
L41Y

>  <group.label>
Not satisfied

$$$$
>  <change>
H18L

>  <group.label>
Satisfied

$$$$
>  <change>
Y38Q

>  <group.label>
Satisfied

$$$$
>  <change>
S14D

>  <group.label>
Satisfied

$$$$
>  <change>
D30M

>  <group.label>
Not satisfied

$$$$
>  <change>
T11N

>  <group.label>
Not satisfied

$$$$
>  <change>
G39S

>  <group.label>
Not satisfied

$$$$
>  <change>
D16V

>  <group.label>
Not satisfied

$$$$
>  <change>
F35L

>  <group.label>
Satisfied

$$$$
